Each entry below lists one item and its recorded # donors responded value.
# Tested on: PBMC of healthy adult blood donors from Colombo, Sri Lanka
# procedureDetails: Ex vivo IFNγ ELISPOT, HLA-matched PBMC of Sri Lankan blood donors
# Format: cell-based, human
# assaySetup: number of donors responding to the epitope; HLA-matched PBMC, proteome-wide screen

Solved entries:
CC[C@H](C)[C@H](NC(=O)[C@H](Cc1ccccc1)NC(=O)[C@H](C)NC(=O)[C@@H](N)CCSC)C(=O)N[C@@H](C)C(=O)N[C@@H](Cc1ccccc1)C(=O)N[C@@H](CC(C)C)C(=O)N[C@@H](CCCNC(=N)N)C(=O)N[C@@H](Cc1ccccc1)C(=O)O    2
CSCC[C@H](NC(=O)[C@H](C)NC(=O)CNC(=O)[C@H](CCC(=O)O)NC(=O)[C@@H](N)CCC(N)=O)C(=O)N[C@@H](Cc1c[nH]cn1)C(=O)N[C@@H](CO)C(=O)N[C@@H](C)C(=O)N[C@@H](CC(C)C)C(=O)O [QEGAMHSAL]    1

Inquiry: Look at this compound and give its reported # donors responded. `CC(C)C[C@H](NC(=O)[C@H](CC(C)C)NC(=O)[C@@H](NC(=O)[C@H](C)NC(=O)[C@H](C)NC(=O)[C@@H](NC(=O)[C@H](CC(C)C)NC(=O)[C@@H](N)[C@@H](C)O)[C@@H](C)O)C(C)C)C(=O)N[C@@H](CC(C)C)C(=O)N[C@H](C(=O)O)C(C)C`
Reply text: 1

Inquiry: Field entry: `CC[C@H](C)[C@H](NC(=O)[C@H](CC(C)C)NC(=O)[C@H](CC(C)C)NC(=O)[C@@H](N)CCSC)C(=O)N[C@@H](CC(C)C)C(=O)N[C@@H](CS)C(=O)N[C@H](C(=O)N[C@H](C(=O)N[C@@H](CCC(N)=O)C(=O)N[C@H](C(=O)O)C(C)C)[C@@H](C)O)C(C)C`
Reply text: 1

Inquiry: Field entry: `CC(C)C[C@H](N)C(=O)N1CCC[C@H]1C(=O)N[C@@H](CCC(=O)O)C(=O)N[C@@H](CCC(=O)O)C(=O)N[C@@H](CCC(N)=O)C(=O)N[C@@H](CC(=O)O)C(=O)N[C@@H](CCC(N)=O)C(=O)N[C@@H](CC(N)=O)C(=O)N[C@@H](Cc1ccc(O)cc1)C(=O)O`
Reply text: 5

Inquiry: Field entry: `C[C@H](NC(=O)[C@H](CCCNC(=N)N)NC(=O)CNC(=O)CNC(=O)[C@H](C)NC(=O)[C@H](CCC(=O)O)NC(=O)[C@H](C)NC(=O)[C@@H](N)[C@@H](C)O)C(=O)N[C@@H](Cc1ccc(O)cc1)C(=O)O`
Reply text: 4

Inquiry: Field entry: `CSCC[C@H](NC(=O)[C@H](Cc1ccc(O)cc1)NC(=O)[C@@H](N)CCCNC(=N)N)C(=O)NCC(=O)N[C@@H](CCC(=O)O)C(=O)N[C@@H](CC(=O)O)C(=O)NCC(=O)N[C@@H](CS)C(=O)N[C@@H](Cc1c[nH]c2ccccc12)C(=O)N[C@@H](Cc1ccc(O)cc1)C(=O)O`
Reply text: 1

====

# Tested on: PBMC of healthy adult blood donors from Colombo, Sri Lanka
# procedureDetails: Ex vivo IFNγ ELISPOT, HLA-matched PBMC of Sri Lankan blood donors
# Format: cell-based, human
# Parameters: unit not given here
# assaySetup: total over responding donors; restricting HLA allele and serotype as given
Ends that are not written are not given here.
Rule for this label: yes (1) means Total Response per epitope is less than 70; no (0) means Total Response per epitope is at least 70.

Worked examples, 5 sequences total:
GAMLFLISGK    yes (1)
KSGAIKVLK    yes (1)
KQISNELNY    yes (1)
FLMVLLIPEP    yes (1)
LATGPVLTLW    no (0)

Inquiry: Would you kindly verify if Total Response per epitope of `EPISYDPKF` is strictly less than 70?
Reply text: no (0)

Inquiry: Field entry: `MALSIVSLF`
Reply text: yes (1)

Inquiry: Field entry: `CLIPTAMAF`
Reply text: yes (1)

Attribution: patent US10308689B2
